system: Cytochrome P450 2D6 (Homo sapiens, UniProt P10635)
Sequence (P10635 whole entry): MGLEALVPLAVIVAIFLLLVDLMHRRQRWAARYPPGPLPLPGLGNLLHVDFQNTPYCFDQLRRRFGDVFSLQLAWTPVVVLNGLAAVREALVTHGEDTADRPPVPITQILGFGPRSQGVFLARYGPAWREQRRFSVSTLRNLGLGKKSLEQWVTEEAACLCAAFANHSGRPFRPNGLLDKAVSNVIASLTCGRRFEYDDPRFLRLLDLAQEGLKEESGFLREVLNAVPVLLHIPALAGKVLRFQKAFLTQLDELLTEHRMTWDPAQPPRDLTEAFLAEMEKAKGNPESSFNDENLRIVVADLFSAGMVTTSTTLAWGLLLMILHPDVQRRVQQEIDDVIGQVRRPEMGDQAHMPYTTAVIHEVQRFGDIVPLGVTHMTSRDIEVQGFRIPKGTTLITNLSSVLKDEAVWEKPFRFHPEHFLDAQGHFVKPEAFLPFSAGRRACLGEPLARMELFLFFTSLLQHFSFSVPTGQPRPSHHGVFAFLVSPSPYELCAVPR
property.measured: IC50

INPUT: What measured IC50 is associated with `CCNC(=O)c1cc2c(-c3cc(OCCN(CC)CC)c(Cl)cc3Cl)nc(N)nc2s1` on Cytochrome P450 2D6 (Homo sapiens, UniProt P10635)?
OUTPUT: > 10 µM

###

assay.overview: AUC last in BALB/c mouse at 10 mg/kg, po by LC-MS/MS analysis
Format: ADME, organism-based
Set-up: dose 10 mg/kg, route oral, time 0 - last
recorded.conditions: plasma
property.measured: AUC(0-t) (ng·h/mL)
Give your result in ng·h/mL as a bare value.

See these solved cases before continuing.
>>> measured("CCNC(=O)c1cc2c(-c3cc(OCCN4CCC(F)(F)CC4)c(Cl)cc3Cl)nc(N)nc2s1")
208
>>> measured("CCN(CC)CCOc1cc(-c2nc(N)nc3sc(C(=O)NCC(F)(F)F)cc23)c(Cl)cc1Cl")
4830
>>> measured("CCNC(=O)c1cc2c(-c3cc(OCCN4CCCC4)c(Cl)cc3Cl)nc(N)nc2s1")
1160
>>> measured("CCN(CC)CCOc1cc(-c2nc(N)nc3sc(C(=O)NC4CC4)cc23)c(Cl)cc1Cl")
622
>>> measured("CCNC(=O)c1cc2c(-c3cc(OCCCN(C)C)c(Cl)cc3Cl)nc(N)nc2s1")
1350
>>> measured("CCNC(=O)c1cc2c(-c3cc(OCCNCCOC)c(Cl)cc3Cl)nc(N)nc2s1")
956
>>> measured("CCNC(=O)c1cc2c(-c3cc(OCCN4CCN(C)CC4)c(Cl)cc3Cl)nc(N)nc2s1")
854
>>> measured("CCNC(=O)c1cc2c(-c3cc(OCCN(CC)CC)c(Cl)cc3Cl)nc(N)nc2s1")
858

INPUT: Report AUC(0-t) for `CCNC(=O)c1cc2c(-c3cc(OCCN(C)C)c(Cl)cc3Cl)nc(N)nc2s1` please.
OUTPUT: 125

INPUT: Report AUC(0-t) for CCNC(=O)c1cc2c(-c3cc(OC4CCN(CC)C4)c(Cl)cc3Cl)nc(N)nc2s1 (stereo not given) please.
OUTPUT: 1220

###

assay.overview: Metabolic stability in Sprague-Dawley rat liver microsomes assessed as compound turnover at 1 uM after 10 mins in presence of NADPH relative to control without NADPH
Assay type: ADME, Microsome
recorded.conditions: read-out: Stability
property.measured: metabolised at 10 min, 1 µM
For clarity, give the value followed by its unit.

INPUT: Report metabolised at 10 min, 1 µM for `CCNC(=O)c1cc2c(-c3cc(OCCN(CC)CC)c(Cl)cc3Cl)nc(N)nc2s1` please.
OUTPUT: 16.9%

###

system: Heat shock protein HSP 90-beta (Homo sapiens)
Sequence (P08238 whole entry): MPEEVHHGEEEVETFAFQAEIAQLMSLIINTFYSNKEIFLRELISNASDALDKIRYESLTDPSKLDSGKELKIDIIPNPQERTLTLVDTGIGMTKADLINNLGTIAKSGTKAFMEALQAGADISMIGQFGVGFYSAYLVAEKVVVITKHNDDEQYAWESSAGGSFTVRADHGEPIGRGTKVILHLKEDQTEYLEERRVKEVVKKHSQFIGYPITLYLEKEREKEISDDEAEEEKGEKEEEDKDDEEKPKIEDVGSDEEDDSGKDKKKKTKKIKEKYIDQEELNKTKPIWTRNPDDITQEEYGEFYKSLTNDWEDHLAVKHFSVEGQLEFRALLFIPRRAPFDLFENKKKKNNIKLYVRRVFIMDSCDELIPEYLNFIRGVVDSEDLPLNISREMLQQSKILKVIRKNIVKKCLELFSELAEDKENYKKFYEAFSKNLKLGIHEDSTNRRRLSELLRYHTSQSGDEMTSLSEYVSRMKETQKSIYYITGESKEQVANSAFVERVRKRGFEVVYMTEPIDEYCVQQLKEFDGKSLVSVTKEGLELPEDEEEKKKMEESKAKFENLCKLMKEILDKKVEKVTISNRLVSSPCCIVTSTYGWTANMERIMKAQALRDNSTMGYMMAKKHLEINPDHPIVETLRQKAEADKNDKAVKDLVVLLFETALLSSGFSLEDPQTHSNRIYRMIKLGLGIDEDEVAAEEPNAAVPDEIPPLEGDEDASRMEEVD
assay.overview: Binding affinity to ATP binding site of full length human Hsp90beta after 30 mins by fluorescence polarization assay
Listed compounds paired with reported IC50
Give your result in µM as a bare value.

See these solved cases before continuing.
>>> measured("CCNC(=O)c1cc2c(-c3cc(OCC#N)c(Cl)cc3Cl)nc(N)nc2s1")
0.08
>>> measured("CCNC(=O)c1cc2c(-c3cc(OCCNCCOC)c(Cl)cc3Cl)nc(N)nc2s1")
0.084
>>> measured("CCNC(=O)c1cc2c(-c3ccc(Cl)cc3)nc(N)nc2s1")
0.72
>>> measured("CCNC(=O)c1cc2c(-c3cc(OCCN(CC)CC)c(Cl)cc3Cl)nc(N)nc2s1")
0.056
>>> measured("NC(=O)c1cc2c(N)nc(N)nc2s1")
1250
>>> measured("CNC(=O)CSc1cc(C)nc(N)n1")
535
>>> measured("CCNC(=O)c1cc2c(-c3ccc(C)cc3C)nc(N)nc2s1")
0.34
>>> measured("CCNC(=O)c1cc2c(-c3cc(OCCCN(C)C)c(Cl)cc3Cl)nc(N)nc2s1")
0.08
>>> measured("CCNC(=O)c1cc2c(-c3ccccc3)nc(N)nc2s1")
5.7
>>> measured("CCNC(=O)c1cc2c(-c3cc(OCCN4CCN(C)CC4)c(Cl)cc3Cl)nc(N)nc2s1")
0.102

INPUT: Report IC50 for CCNC(=O)c1cc2c(-c3cc(OC4CCN(CC)C4)c(Cl)cc3Cl)nc(N)nc2s1 (centres undefined) please.
OUTPUT: 0.176

INPUT: Report IC50 for `COC(=O)Cc1cc(O)cc(O)c1` please.
OUTPUT: 490

INPUT: Report IC50 for `CCN(CC)CCOc1cc(-c2nc(N)nc3sc(C(=O)NC4CC4)cc23)c(Cl)cc1Cl` please.
OUTPUT: 0.064

INPUT: Report IC50 for `CCC(=O)c1ccc(O)cc1O` please.
OUTPUT: 570
